Reference source for all entries: PubChem BioAssay AID1645848

Conditions: buffer; pH 7.4; 6.0 h; 150.0 µM
Reported solubility kinetic values for the following compounds.
Hi! Could you send only the number? It should be in µg/mL, unit omitted.

>>> readout_number("Cc1cc(-c2nnc3n2CCCCC3)c(C)n1-c1cccc(C(F)(F)F)c1")
32.8

Please look at the following compound next.
Sure, the documented solubility kinetic for NC(=O)c1ccc(-c2ncc3cnc(-c4cccc(F)c4)cn23)cc1 is 10.9

* * *

Conditions: buffer; pH 7.4; 6.0 h; 150.0 µM
endpoint-label: solubility kinetic

Would you please look over these solved cases?
>>> result("NC(=O)C1CCN(c2nc(-c3ccc4ccccc4c3)cs2)CC1")
"3.67 µg/mL"
>>> result("O=C1c2ccccc2C2=Nc3ccccc3SC(c3ccccc3F)C12 (stereo unspecified)")
"< 1 µg/mL"
>>> result("O=S(=O)(Nc1nc2n(n1)C(c1ccccc1)C=C(c1ccc(Cl)cc1)N2)c1ccccc1 (stereo unspecified)")
"1.09 µg/mL"
>>> result("NC(=O)C1CCN(c2ncc(Br)cn2)CC1")
"> 42 µg/mL"
>>> result("CN(C)CCCn1cc(C2=C(c3c[nH]c4ccccc34)C(=O)NC2=O)c2ccccc21")
"> 41 µg/mL"
>>> result("Cc1ccc(-n2nc3c(=O)n(CCCC(=O)NC(C)c4ccccc4)nc(C)c3c2C)cc1 (stereo unspecified)")
"4.59 µg/mL"
>>> result("Cc1ccc(-c2cc(C(=O)Nc3ccncc3)c3ccccc3n2)cc1")
"< 1 µg/mL"
>>> result("COc1ccc(-n2nc(C3CCCN(C(=O)c4ccccc4F)C3)[nH]c2=O)cc1 (stereo unspecified)")
"37.3 µg/mL"
>>> result("CC1=C(C(=O)NC2CCCC2)C(c2nn(C)cc2Cl)N=C(Nc2nc3ccccc3o2)N1 (stereo unspecified)")
"10 µg/mL"
>>> result("Fc1cc(Nc2nc(-c3ccncc3)nc3ccccc23)ccc1-c1cncnc1")
"< 1 µg/mL"

Sure, the documented solubility kinetic for CSc1ccc(/C=C/c2nc3ccccc3n2S(=O)(=O)c2ccc(Br)cc2)cc1 is 2.73 µg/mL

Sure, the documented solubility kinetic for Cc1cccc(-n2cnc3cc(C(=O)N4CCCCCC4)ccc32)c1 is 41.2 µg/mL

Sure, the documented solubility kinetic for NC[C@H](O)c1ccc(O)c(O)c1 is > 25 µg/mL

Sure, the documented solubility kinetic for O=C(NCCCn1ccnc1)c1ccc(-c2ncc3cnc(-c4cccc(F)c4)cn23)cc1 is 32.5 µg/mL

Sure, the documented solubility kinetic for Cc1ccc(S(=O)(=O)Nc2cnccc2C(=O)NCc2ccccc2)cc1 is > 56 µg/mL

Sure, the documented solubility kinetic for COc1ccc(CCNc2ncnc3c2c(-c2ccccc2)cn3-c2cccc(Cl)c2)cc1OC is < 1 µg/mL

Sure, the documented solubility kinetic for Cc1n[nH]c(C)c1CCc1nc2c3ccccc3nc(SCC(=O)Nc3ccc(F)cc3)n2n1 is < 1 µg/mL

Sure, the documented solubility kinetic for Cc1ccc(S(=O)(=O)Nc2ccc(C(=O)Nc3nc(-c4ccccc4)cs3)cc2Cl)cc1 is < 1 µg/mL

Sure, the documented solubility kinetic for Cc1ccc(-n2ncc3c(Nc4cccc(C(=O)O)c4)ncnc32)cc1 is > 51 µg/mL

Sure, the documented solubility kinetic for CCc1cccc(CC)c1-n1c(C=C(C)C)c(C(=O)N2CCNCC2)cc(-c2nc(-c3ccc(C(F)(F)F)cc3)cs2)c1=O is < 1 µg/mL

Sure, the documented solubility kinetic for NC(=O)C1CCN(c2nc(-c3cccc(Cl)c3)cs2)CC1 is 10.6 µg/mL
